Field: log10 IC50. Provide a value for each of the compounds that follow.
# TARGET ENTITY: human Nav1.8 (hNav1.8) ion channel (Homo sapiens, UniProt Q9Y5Y9)
# Construct: expressed in transfected cells
# Sequence (Q9Y5Y9 whole entry): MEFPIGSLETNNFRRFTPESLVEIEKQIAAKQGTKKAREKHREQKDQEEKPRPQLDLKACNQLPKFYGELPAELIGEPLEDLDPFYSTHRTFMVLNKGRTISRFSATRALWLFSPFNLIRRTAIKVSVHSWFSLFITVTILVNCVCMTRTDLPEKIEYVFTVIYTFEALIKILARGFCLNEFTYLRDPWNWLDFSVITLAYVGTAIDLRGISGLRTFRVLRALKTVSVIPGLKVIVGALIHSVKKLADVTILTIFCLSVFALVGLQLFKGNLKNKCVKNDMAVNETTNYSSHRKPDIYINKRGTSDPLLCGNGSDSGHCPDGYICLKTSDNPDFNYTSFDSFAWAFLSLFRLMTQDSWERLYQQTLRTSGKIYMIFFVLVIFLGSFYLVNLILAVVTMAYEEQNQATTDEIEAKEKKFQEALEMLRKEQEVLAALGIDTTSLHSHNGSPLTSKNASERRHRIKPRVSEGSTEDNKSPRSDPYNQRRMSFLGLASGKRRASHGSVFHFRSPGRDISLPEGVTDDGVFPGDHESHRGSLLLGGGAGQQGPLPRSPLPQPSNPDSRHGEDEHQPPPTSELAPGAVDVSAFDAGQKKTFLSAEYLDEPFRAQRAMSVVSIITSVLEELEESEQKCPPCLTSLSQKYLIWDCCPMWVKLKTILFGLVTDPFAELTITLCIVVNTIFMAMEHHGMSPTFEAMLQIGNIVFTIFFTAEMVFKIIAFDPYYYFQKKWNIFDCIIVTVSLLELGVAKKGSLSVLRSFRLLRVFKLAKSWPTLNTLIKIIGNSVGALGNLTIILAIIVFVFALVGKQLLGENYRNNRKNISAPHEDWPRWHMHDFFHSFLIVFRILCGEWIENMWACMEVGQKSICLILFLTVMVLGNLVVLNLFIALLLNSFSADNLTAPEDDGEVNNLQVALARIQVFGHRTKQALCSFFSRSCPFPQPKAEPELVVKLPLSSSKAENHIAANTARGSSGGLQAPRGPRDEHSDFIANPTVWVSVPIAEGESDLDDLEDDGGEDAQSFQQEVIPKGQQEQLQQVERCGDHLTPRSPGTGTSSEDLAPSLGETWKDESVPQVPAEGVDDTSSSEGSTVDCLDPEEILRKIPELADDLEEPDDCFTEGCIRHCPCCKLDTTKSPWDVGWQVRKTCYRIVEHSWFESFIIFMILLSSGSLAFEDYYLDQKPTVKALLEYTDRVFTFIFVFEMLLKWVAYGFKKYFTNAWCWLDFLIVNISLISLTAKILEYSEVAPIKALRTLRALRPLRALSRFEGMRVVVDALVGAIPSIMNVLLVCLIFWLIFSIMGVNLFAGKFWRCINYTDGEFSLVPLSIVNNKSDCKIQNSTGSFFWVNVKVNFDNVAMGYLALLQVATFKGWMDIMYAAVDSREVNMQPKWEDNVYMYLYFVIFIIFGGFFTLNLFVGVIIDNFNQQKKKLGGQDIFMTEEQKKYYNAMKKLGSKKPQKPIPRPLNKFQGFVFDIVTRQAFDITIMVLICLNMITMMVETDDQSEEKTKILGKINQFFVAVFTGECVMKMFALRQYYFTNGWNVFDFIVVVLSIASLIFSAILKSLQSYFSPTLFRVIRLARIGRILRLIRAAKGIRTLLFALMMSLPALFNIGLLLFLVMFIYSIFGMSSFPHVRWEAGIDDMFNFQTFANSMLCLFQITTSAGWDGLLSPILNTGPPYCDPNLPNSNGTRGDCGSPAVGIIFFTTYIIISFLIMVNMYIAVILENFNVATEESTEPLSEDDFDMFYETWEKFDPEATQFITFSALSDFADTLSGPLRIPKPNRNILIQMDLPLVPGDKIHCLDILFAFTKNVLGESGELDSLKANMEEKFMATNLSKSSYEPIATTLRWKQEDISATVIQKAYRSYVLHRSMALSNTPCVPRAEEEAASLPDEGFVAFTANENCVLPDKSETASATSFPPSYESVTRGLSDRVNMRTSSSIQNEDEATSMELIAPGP
# MEASUREMENT DESCRIPTION: Inhibition of human Nav1.8 stably expressed in SH-SY-5Y cells (membrane potential dye fluorescence assay)
# Format: cell-based
# RUN PARAMETERS: SH-SY-5Y hNav1.8 cells; FLIPR membrane potential dye; 10 μM pyrethroid, 250 nM TTX; test concentration range 100 μM-0.05 μM; read-out: hNav1.8 IC50
Structures can show the parent of a compound that is named as a salt.
Transform log10 | Measure IC50 | Unit nM

For each of the compounds below, state log10 IC50.
1. CC(c1ccccc1Cl)N1CC2CC1CN2C(=O)c1ccc(Oc2ccc(F)cc2)c(F)c1 (single isomer, unassigned) [Example 176]
2. Cc1cc(F)ccc1C(C)N1CC2CC1CN2C(=O)Nc1ccc(Oc2ccc(F)cc2)cc1 (stereo not shown)

1: 2.63; 2: 2.76

For each of the compounds below, state log10 IC50.
1. CC(c1ccccc1Cl)N1CC2CC1CN2C(=O)Nc1ccc(Oc2cccc(F)c2)cc1 (stereo not shown)
2. CC(c1ccccc1Cl)N1CC2CC1CN2C(=O)c1ccc(Oc2cccc(F)c2)cc1 (stereo not shown) [Example 175]
3. CC(c1ccccc1Cl)N1CC2CC1CN2C(=O)Nc1ccc(Oc2ccc(F)cc2)cc1 (stereo not shown) [Example 96, methanesulfonate salt]
4. O=C(Nc1ccc(Oc2ccccc2)cc1)N1CC2CC1CN2C1Cc2ccc(F)cc2C1 (stereo not shown)

1. 2.78
2. 2.81
3. 2.57
4. 2.89

For each of the compounds below, state log10 IC50.
1. O=C(Nc1ccc(Oc2ccc(F)cc2)cc1)N1CC2CC1CN2C1CCc2cc(F)ccc21 (stereo not shown) [Example 92]
2. Cc1ccccc1C(C)N1CC2CC1CN2C(=O)Nc1ccc(OC2CCOCC2)cc1 (stereo not shown)
3. O=C(c1ccc(C(F)(F)F)cc1)N1CC2CC1CN2C1CCc2ccccc2C1 (stereo not shown)

1: 2.56; 2: 4.28; 3: 4.37

For each of the compounds below, state log10 IC50.
1. CC(C(C#N)c1ccccc1)N1CC2CC1CN2C(=O)Nc1ccc(C(F)(F)F)cc1 (stereo not shown)
2. CC(c1ccccc1Cl)N1CC2CC1CN2C(=O)N(C)c1ccc(Oc2ccc(F)cc2)cc1 (stereo not shown) [Example 115]
3. CC(c1ccc(F)cc1Cl)N1CC2CC1CN2C(=O)c1ccc(Oc2ccc(F)cc2)cc1 (stereo not shown) [Example 163]
4. O=C(Nc1ccc(Oc2ccc(F)cc2)cc1)N1CC2CC1CN2C1Cc2ccccc2C1 (stereo not shown)
5. CC(c1ccccc1Cl)N1CC2CC1CN2C(=O)c1cc2ccccc2[nH]1 (stereo not shown)
6. CC(c1ccc(F)cc1)N1CC2CC1CN2C(=O)Nc1ccc(C(F)(F)F)cc1 (stereo not shown) [Example 53]

4.42
3.30
4.25
2.23
3.77
3.40

* * *

# TARGET ENTITY: human Nav1.8 (hNav1.8) ion channel (Homo sapiens)
# Construct: expressed in transfected cells
# MEASUREMENT DESCRIPTION: Inhibition of human Nav1.8 stably expressed in SH-SY-5Y cells (membrane potential dye fluorescence assay)
# Format: cell-based
# RUN PARAMETERS: SH-SY-5Y hNav1.8 cells; FLIPR membrane potential dye; 10 μM pyrethroid, 250 nM TTX; test concentration range 100 μM-0.05 μM; read-out: hNav1.8 IC50
pIC50: −log10 of the molar value.
Threshold check on pIC50: at or above 6 gives condition met, strictly below gives condition not met.

For orientation, consider the following solved cases.
[
  {
    "COMPOUND": "Cc1ccccc1C(C)N1CC2CC1CN2C(=O)Nc1ccc(OCCc2ccccn2)cc1 (centres unmarked) [Example 45]",
    "TARGET ENTITY": "human Nav1.8 (hNav1.8) ion channel (Homo sapiens)",
    "CLASS ASSIGNMENT": "condition not met"
  },
  {
    "COMPOUND": "O=C(Nc1ccc(Oc2ccc(F)cc2)cc1)N1CC2CN(Cc3ccccc3)CC2C1 (centres unmarked) [Example 98]",
    "TARGET ENTITY": "human Nav1.8 (hNav1.8) ion channel (Homo sapiens)",
    "CLASS ASSIGNMENT": "condition met"
  },
  {
    "COMPOUND": "O=C(Nc1ccc(Oc2ccc(F)cc2)cc1)N1CC2CC1CN2C1CCc2ccccc2C1 (centres unmarked) [Example 97]",
    "TARGET ENTITY": "human Nav1.8 (hNav1.8) ion channel (Homo sapiens)",
    "CLASS ASSIGNMENT": "condition met"
  }
]

Has CC(c1c(F)cccc1F)N1CC2CC1CN2C(=O)Nc1ccc(C(F)(F)F)cc1 (centres unmarked) [Example 13] a recorded pIC50 greater than or equal to 6?
condition not met

* * *

# TARGET ENTITY: human Nav1.8 (hNav1.8) ion channel (Homo sapiens, UniProt Q9Y5Y9)
# Construct: expressed in transfected cells
# MEASUREMENT DESCRIPTION: Inhibition of human Nav1.8 stably expressed in SH-SY-5Y cells (membrane potential dye fluorescence assay)
# Assay type: cell-based
# RUN PARAMETERS: SH-SY-5Y hNav1.8 cells; FLIPR membrane potential dye; 10 μM pyrethroid, 250 nM TTX; test concentration range 100 μM-0.05 μM; read-out: hNav1.8 IC50
Exam item: assign condition met to entries whose IC50 is below 800 nM and condition not met to entries at or above 800 nM. Note that a value of exactly 800 nM receives condition not met.

I'd appreciate it if you could check whether COc1ccccc1CC(C)N1CC2CC1CN2C(=O)Nc1ccc(C(F)(F)F)cc1 (centres unmarked) has IC50 smaller than 800 nM.
condition met

I'd appreciate it if you could check whether Cc1ccccc1C(C)N1CC2CC1CN2C(=O)NC(C)c1ccc(F)cc1 (centres unmarked) has IC50 smaller than 800 nM.
condition not met

I'd appreciate it if you could check whether Cc1ccccc1C(C)N1CC2CC1CN2C(=O)Nc1ccc(C(=O)c2ccccc2)cc1 (centres unmarked) has IC50 smaller than 800 nM.
condition met

I'd appreciate it if you could check whether Cc1ccccc1C(C)N1CC2CC1CN2C(=O)Nc1ccc(OCCc2scnc2C)cc1 (centres unmarked) has IC50 smaller than 800 nM.
condition not met

I'd appreciate it if you could check whether CC(c1ccccc1Cl)N1CC2CC1CN2C(=O)Nc1ccc(Oc2ccc(Cl)cc2)cc1 (centres unmarked) [Example 128] has IC50 smaller than 800 nM.
condition not met

I'd appreciate it if you could check whether COCCOc1ccc(NC(=O)N2CC3CC2CN3C(C)c2ccccc2C)cc1 (centres unmarked) has IC50 smaller than 800 nM.
condition not met

I'd appreciate it if you could check whether CC(c1ccc(F)cc1)N1CC2CC1CN2C(=O)Nc1cccc(C(F)(F)F)c1 (centres unmarked) [Example 47] has IC50 smaller than 800 nM.
condition not met

* * *

# TARGET ENTITY: human Nav1.8 (hNav1.8) ion channel (Homo sapiens, UniProt Q9Y5Y9)
# Construct: expressed in transfected cells
# MEASUREMENT DESCRIPTION: Inhibition of human Nav1.8 stably expressed in SH-SY-5Y cells (membrane potential dye fluorescence assay)
# Format: cell-based
# RUN PARAMETERS: SH-SY-5Y hNav1.8 cells; FLIPR membrane potential dye; 10 μM pyrethroid, 250 nM TTX; test concentration range 100 μM-0.05 μM; read-out: hNav1.8 IC50
Field: pIC50. Provide a value for each of the compounds that follow.
Give bare numbers, as −log10 of the molar value.

Field: example entries. Status: answers known.
[
  {
    "COMPOUND": "CC(c1c(F)cccc1F)N1CC2CC1CN2C(=O)Nc1ccc(Oc2ccccc2)cc1 (stereo not shown) [Example 9]",
    "pIC50": 6.06
  },
  {
    "COMPOUND": "CC(c1ccccc1C(F)(F)F)N1CC2CC1CN2C(=O)Nc1cccc(C(F)(F)F)c1 (stereo not shown) [Example 55]",
    "pIC50": 5.37
  },
  {
    "COMPOUND": "CC(c1ccccc1C(F)(F)F)N1CC2CC1CN2C(=O)Nc1ccc(C(F)(F)F)cc1 (single isomer, unassigned) [Example 56]",
    "pIC50": 5.10
  }
]

# input for lookup
Tell me its pIC50 on human Nav1.8 (hNav1.8) ion channel (Homo sapiens, UniProt Q9Y5Y9): Cc1ccccc1C(C)N1CC2CC1CN2C(=O)Nc1cccc(Oc2ccccc2)c1 (stereo not shown) [Example 8]
6.17

* * *

Field: pIC50. Provide a value for each of the molecules that follow.
# TARGET ENTITY: human Nav1.8 (hNav1.8) ion channel (Homo sapiens, UniProt Q9Y5Y9)
# Construct: expressed in transfected cells
# MEASUREMENT DESCRIPTION: Inhibition of human Nav1.8 stably expressed in SH-SY-5Y cells (membrane potential dye fluorescence assay)
# Assay type: cell-based
# RUN PARAMETERS: SH-SY-5Y hNav1.8 cells; FLIPR membrane potential dye; 10 μM pyrethroid, 250 nM TTX; test concentration range 100 μM-0.05 μM; read-out: hNav1.8 IC50
Answers are plain numbers, as −log10 of the molar value.

Field: example entries. Status: answers known.
[
  {
    "MOLECULE": "CC(c1ccccn1)N1CC2CC1CN2C(=O)c1ccc(Oc2cccc(C#N)c2)cc1 (stereo not shown) [Example 180]",
    "TARGET ENTITY": "human Nav1.8 (hNav1.8) ion channel (Homo sapiens, UniProt Q9Y5Y9)",
    "pIC50": 5.33
  },
  {
    "MOLECULE": "Cc1cc(F)ccc1C(C)N1CC2CC1CN2C(=O)Nc1ccc(Oc2ccccc2)cc1 (stereo not shown) [Example 64]",
    "TARGET ENTITY": "human Nav1.8 (hNav1.8) ion channel (Homo sapiens, UniProt Q9Y5Y9)",
    "pIC50": 6.57
  },
  {
    "MOLECULE": "CC(Cc1c(F)cccc1Cl)N1CC2CC1CN2C(=O)Nc1ccc(C(F)(F)F)cc1 (stereo not shown) [Example 85]",
    "TARGET ENTITY": "human Nav1.8 (hNav1.8) ion channel (Homo sapiens, UniProt Q9Y5Y9)",
    "pIC50": 6.20
  }
]

# input for lookup
Give recorded pIC50. CC(c1ccccc1Cl)N1CC2CC1CN2C(=O)Nc1ccc(Oc2ccccc2F)cc1 (stereo not shown) [Example 109]
6.17
